- tested-target: T1, A647-SsoSSB A114C (Sulfolobus solfataricus, UniProt Q97W73 1-148, A114C)
- T1 sequence: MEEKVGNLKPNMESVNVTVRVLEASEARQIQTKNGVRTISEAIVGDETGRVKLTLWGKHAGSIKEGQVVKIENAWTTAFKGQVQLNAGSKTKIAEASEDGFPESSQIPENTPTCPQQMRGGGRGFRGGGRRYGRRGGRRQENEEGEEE
- test-name: single-molecule FRET/PIFE/quenching kinetics; S4 pathway, two monomers in one step; kon 0.006 nM-1 s-1, koff 0.33 s-1; 50 mM Tris-HCl pH 7.6, 10 mM KCl, 5% glycerol, 0.1 mg/ml BSA, 5-50 nM DNA, 20 C (PIFE also 65 C)
- applied-conditions: protein: recombinant; chain copies: 2; label: 5' biotin, 3' Cy3; single strand
pKd: −log10 of the molar value.
property-label: pKd

// query Retrieve pKd measured for CCCCCCCCCCCC (ssDNA) [BidC12Cy3] and print it.
// result ~7.24
